- Tested on: T1, murine BACE1 ECD
- T1 construct: analyte of the Octet assay (200 nM) and enzyme of the first short substrate assay
- T1 sequence (single chain, as listed by the source limits assumed): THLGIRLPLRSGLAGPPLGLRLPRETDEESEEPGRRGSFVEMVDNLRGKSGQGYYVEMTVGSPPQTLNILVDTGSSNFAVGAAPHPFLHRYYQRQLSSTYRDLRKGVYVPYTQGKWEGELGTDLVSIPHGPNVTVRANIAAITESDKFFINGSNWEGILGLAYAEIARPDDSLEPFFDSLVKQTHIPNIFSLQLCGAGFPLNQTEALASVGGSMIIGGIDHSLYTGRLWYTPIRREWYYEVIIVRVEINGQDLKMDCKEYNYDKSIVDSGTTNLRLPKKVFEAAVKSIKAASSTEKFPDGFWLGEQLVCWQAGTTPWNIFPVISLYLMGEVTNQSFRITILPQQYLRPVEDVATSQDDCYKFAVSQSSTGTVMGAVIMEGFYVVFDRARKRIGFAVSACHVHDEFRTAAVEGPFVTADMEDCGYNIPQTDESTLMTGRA
- Assay name: Octet, pH 7.5;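 further: antibodies captured on anti-human capture sensor tips, dissociation monitored in PBS with BSA, Kd obtained from kinetic fit to a one-to-one binding model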
pKd: −log10 of the molar value.
Entries and their pKd values follow.

Example binders with recorded pKd:
6280 (antibody, V domains shown, anti-BACE1 IgG) VH: QLQLQESGPGLVKPSETLSLTCTVSGGSTSSSSYYWGWIRQPPGKGLEWIGSIYRSGSTYYNPSFKSRVTISVDTSKNQFSLKLSSVTAADTAVYYCARVGHGISYFDLWGRGTLVTVSS VL: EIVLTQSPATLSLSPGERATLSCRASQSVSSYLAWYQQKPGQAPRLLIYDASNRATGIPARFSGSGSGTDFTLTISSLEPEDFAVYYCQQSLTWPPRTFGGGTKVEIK	> 9.49
6290 (antibody, V domains shown, anti-BACE1 IgG) VH: QLQLQESGPGLVKPSETLSLTCTVSGGSISSSSYYWGWIRQPPGKGLEWIGMIYYSGSTWYNPSLKSRVTISVDTSKNQFSLKLSSVTAADTAVYYCARVGLGVSYFDLWGRGTLVTVSS VL: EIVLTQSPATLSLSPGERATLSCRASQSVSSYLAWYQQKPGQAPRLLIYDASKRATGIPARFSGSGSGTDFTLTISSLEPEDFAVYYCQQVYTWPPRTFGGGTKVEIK	> 9.57

# evaluate next
Value of measured pKd for the entry 6293 (antibody, V domains shown, anti-BACE1 IgG) VH: QLQLQESGPGLVKPSETLSLTCTVSGGSISSSSYYWGWIRQPPGKGLEWIGMIYYSGSTWYNPSLRSRVTISVDTSKNQFSLKLSSVTAADTAVYYCARVGHGVSYFDLWGRGTLVTVSS VL: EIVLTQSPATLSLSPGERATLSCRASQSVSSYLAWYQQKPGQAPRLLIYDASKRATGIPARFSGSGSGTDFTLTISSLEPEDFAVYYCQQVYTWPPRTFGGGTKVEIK : > 9.55
